- Test system: MDCK-II
- assay method text: Apparent permeability from apical to basolateral side of MDCK2 cells over expressing MDR1 at 5 uM after 1 hr in presence of 25 uM LSN335984
- Type: functional, cell-based
- assay conditions: Canis lupus familiaris

smiles record: CN(C)c1ccc(-c2cc(-c3ccc(N(C)C)cc3)[s+]c(C(C)(C)C)c2)cc1.[I-]
measured target: MDCK-II
permeability, %: 44

smiles record: Cc1cc(-c2ccc(N(C)C)cc2)cc(-c2ccc(N(C)C)cc2)[s+]1.[I-]
measured target: MDCK-II
permeability, %: 24

smiles record: CN(C)c1ccc(-c2cc(-c3ccccc3)[s+]c(-c3ccc(N)cc3)c2)cc1.F[P-](F)(F)(F)(F)F
measured target: MDCK-II
permeability, %: 19

smiles record: CN(C)c1ccc(-c2cc(-c3ccccc3)[se+]c(-c3ccc(N)cc3)c2)cc1.F[P-](F)(F)(F)(F)F
measured target: MDCK-II
permeability, %: 18

smiles record: CN(C)c1ccc(-c2cc(-c3ccc(N)cc3)[s+]c(-c3ccc(N(C)C)cc3)c2)cc1.F[P-](F)(F)(F)(F)F
measured target: MDCK-II
permeability, %: 16

smiles record: CN(C)c1ccc(-c2cc(-c3ccc(N(C)C)cc3)[se+]c(C(C)(C)C)c2)cc1.[I-]
measured target: MDCK-II
permeability, %: 37

smiles record: CN(C)c1ccc(-c2cc(-c3ccc(N)cc3)[se+]c(-c3ccc(N)cc3)c2)cc1.F[P-](F)(F)(F)(F)F
measured target: MDCK-II
permeability, %: 14

smiles record: Cc1cc(C)c(-c2cc(-c3ccc(N(C)C)cc3)[te+]c(-c3ccc(N(C)C)cc3)c2)c(C)c1.F[P-](F)(F)(F)(F)F
measured target: MDCK-II
permeability, %: 7

smiles record: CCCc1cc(-c2ccc(N(C)C)cc2)cc(-c2ccc(N(C)C)cc2)[s+]1.[I-]
measured target: MDCK-II
permeability, %: 8

====

- assay method text: Inhibition of verapamil-induced ATPase activity in lipid activated mouse P-glycoprotein mdr3 cys-less mutant assessed as ATP hydrolysis per ug of protein
# key: entry, value: IC50
parameter measured: IC50 (µM)

smiles record: CN(C)c1ccc(-c2cc(-c3ccc(N)cc3)[se+]c(-c3ccc(N)cc3)c2)cc1.F[P-](F)(F)(F)(F)F
value qualifier: >
observed measurement: 100
--
smiles record: c1ccc(-c2cc(-c3ccc(N4CCOCC4)cc3)[s+]c(-c3ccc(N4CCOCC4)cc3)c2)cc1
value qualifier: =
observed measurement: 3.1
--
smiles record: CN(C)c1ccc(-c2cc(-c3ccccc3)[s+]c(-c3ccc(N)cc3)c2)cc1.F[P-](F)(F)(F)(F)F
value qualifier: =
observed measurement: 5.3
--
smiles record: Cc1cc(-c2ccc(N(C)C)cc2)cc(-c2ccc(N(C)C)cc2)[s+]1.[I-]
value qualifier: =
observed measurement: 15

====

- Species: Mus musculus
- assay method text: Inhibition of verapamil-induced residual ATPase activity in lipid activated mouse P-glycoprotein mdr3 cys-less mutant assessed as ATP hydrolysis per ug of protein
parameter measured: Activity (nmol/min)

smiles record: CN(C)c1ccc(-c2cc(-c3cccs3)cc(-c3ccc(N(C)C)cc3)[te+]2)cc1
observed measurement: 0.9
//
smiles record: c1ccc(-c2cc(-c3ccc(N4CCOCC4)cc3)cc(-c3ccc(N4CCOCC4)cc3)[s+]2)cc1
observed measurement: 1
//
smiles record: CCc1cc(-c2ccc(N(C)C)cc2)cc(-c2ccc(N(C)C)cc2)[s+]1
observed measurement: 1.3
